Origin of the recorded values: PubChem BioAssay (NCI)

Tested on: HCC-2998 colon
experiment.notes: NCI-60 one-dose screen, 48 h (100 = growth as untreated, 0 = no growth, -100 = all killed)
details: 10 µM unless noted
The panel holds about 83,000 compounds, 20% with a hit somewhere; the sample as a whole holds those more often.
growth values, listed per item
Answer format: numeric, % implied, no suffix.

Solved entries:
[[record]]
compound = "Oc1cccc2oc(=S)[nH]c12"
endpoint_result = 100

[[record]]
compound = "COc1ccc(-c2nc3ncccn3c2-c2nc3ccc(Br)cc3[nH]2)cc1"
endpoint_result = 97

[[record]]
compound = "CN(C)c1ccc(-c2ccc(-c3ccc(C(=N)N)c(F)c3)s2)cc1"
endpoint_result = -95.4

[[record]]
compound = "COc1cc2c(cc1-c1c(C)noc1C)ncc1nc(C3CC3)n([C@H](C)COC(F)F)c12"
endpoint_result = 57.3

[[record]]
compound = "COC(=O)[C@]12CC[C@@H](C)[C@H](C)[C@@H]1C1=CC[C@@H]3[C@@]4(C)C[C@@H](OC(C)=O)[C@H](OC(C)=O)[C@@](C)(COC(C)=O)[C@@H]4[C@H](O)C[C@@]3(C)[C@]1(C)CC2"
endpoint_result = 5.84


compound `N#CCCCCCn1c2ccccc2c2c3[nH]c(=O)[nH]c(=O)c3c3c4ccccc4n(CCCCCC#N)c3c21` , growth observed: 53.8

So for `c1cnc2[nH]cc(-c3csc(-c4cn(CCCN5CCCCC5)c5ccccc45)n3)c2c1` , the logged growth turned out to be 87.6

###

System: CCRF-CEM leukemia
experiment.notes: NCI-60 one-dose screen, 48 h
details: 10 µM unless noted
Compounds without any hit were thinned out: in the full panel of roughly 83,000, 20% have a hit. The source made the active and inactive calls. The calls were made as follows: active = growth percent below 10; inactive = the rest.
Result category, one only: 1.0 (active), 0.0 (inactive)

[[record]]
molecule = "CC(=O)OC[C@]12CC[C@@H](/C(C)=N/O)[C@@H]1[C@H]1CC[C@@H]3[C@@]4(C)CCCNC(C)(C)[C@@H]4CC[C@@]3(C)[C@]1(C)CC2"
classification = 0.0

[[record]]
molecule = "CCN1CCN(C(=O)[C@]23CCC(C)(C)C[C@@H]2C2=CC[C@@H]4[C@@]5(C)C/C(=C/c6cccnc6)C(=O)C(C)(C)[C@@H]5CC[C@@]4(C)[C@]2(C)CC3)CC1"
classification = 0.0

[[record]]
molecule = "Cc1cccc2c1NC(=O)[C@@]21[C@H](C(=O)c2ccccc2)[C@]2(C(=O)Nc3ccccc32)[C@H]2CCCN21"
classification = 1.0

[[record]]
molecule = "Nc1c2c(nc3ccc(Cl)cc13)CC(c1ccc(O)cc1)CC2=O (stereo unspecified)"
classification = 0.0


For this molecule, state the assay outcome: `CC[C@]12C=CCN3CC[C@@]4(c5cc([C@H]6CCC(=O)N6)c(OC)cc5N(C)[C@H]4[C@@](O)(C(=O)OC)[C@@H]1OC(C)=O)[C@@H]32`
0.0

Each molecule tested received a call. Report the one for `COc1ccc2c(c1)c(-c1nc(-c3c[nH]c4ncccc34)cs1)cn2CCCN1CCCCC1` .
1.0

###

System: DU-145 prostate
experiment.notes: NCI-60 one-dose screen, 48 h
details: 10 µM unless noted
About 83,000 compounds went through this panel and 20% of them were active in at least one assay; those are over-represented in the sample as a whole. The source made the active and inactive calls. The calls were made as follows: active = growth percent below 10; inactive = the rest.
Parameter call: string, one of active, inactive

Worked set:
[[record]]
compound = "COc1ccc2c(c1)c(-c1nc(-c3c[nH]c4ncccc34)cs1)cn2CCNC(=O)OC(C)(C)C"
classification = "inactive"

[[record]]
compound = "O=[N+]([O-])c1cccc(/C=N\\Nc2ccccc2)c1"
classification = "inactive"

[[record]]
compound = "CC1=CC(=O)N(c2cccc3c(N4C(=O)C=C(C)C4=O)cccc23)C1=O"
classification = "inactive"

[[record]]
compound = "Cn1cccc1/C=C1/SC(=S)N(CCc2ccc(O)cc2)C1=O"
classification = "inactive"

[[record]]
compound = "CCCCN1CCCCn2c1nc1c2c(=O)n(C)c(=O)n1C"
classification = "inactive"


Could you kindly confirm the outcome this assay logged for `c1csc(-c2nc(-c3cc4ccccc4c(N4CCOCC4)n3)cs2)c1` ?
inactive

###

Test system: CCRF-CEM leukemia
experiment.notes: NCI-60 one-dose screen, 48 h (100 = growth as untreated, 0 = no growth, -100 = all killed)
details: 10 µM unless noted
Compounds without any hit were thinned out: in the full panel of roughly 83,000, 20% have a hit.
growth values by entry
Kindly provide the numeric value in % only, without the unit symbol.

Below, 4 compounds whose answers are already recorded.
[[record]]
compound = "CN(C)CCCCC(C(=O)CBr)(c1ccccc1)c1ccccc1"
endpoint_result = 5.74

[[record]]
compound = "C#CCC(C)(O)/C=C/C1=C(C)CCCC1(C)C (stereo not given)"
endpoint_result = 101

[[record]]
compound = "COC(=O)[C@]12CC[C@@H](C)[C@H](C)[C@@H]1C1=CC[C@@H]3[C@@]4(C)C[C@@H](O)[C@H](O)[C@@](C)(CO)C4=CC[C@@]3(C)[C@]1(C)CC2"
endpoint_result = -33.6

[[record]]
compound = "CCN(CC)CCCCCNc1cc(OC(=O)c2ccccc2)cc2cccnc12"
endpoint_result = 93.9


Entry `CC(=O)Oc1ccccc1C(=O)/C=C/c1cccc([N+](=O)[O-])c1` ; growth = 5.04

###

Test system: SR leukemia
experiment.notes: NCI-60 one-dose screen, 48 h
details: 10 µM unless noted
This is part of a sample that, as a whole, favours compounds with a hit. Of some 83,000 tested, about 20% had one in any assay. Calls of active or inactive are those of the source. How the source made its calls: active means growth percent below 10; inactive means the rest.
Assign a class; possible classes are active, inactive

[[record]]
compound = "N#C/C(=C\\c1ccc(-c2ccc(F)cc2)o1)c1nc(-c2ccco2)cs1"
classification = "inactive"

[[record]]
compound = "Cc1cc(Cl)nc(N(CCCNc2ccnc3cc(Cl)ccc23)Cc2ccco2)n1"
classification = "active"

[[record]]
compound = "C=C1CC[C@@H](C(=O)OC)Cc2nc(C)ccc21"
classification = "inactive"

[[record]]
compound = "Fc1ccc(Nc2nnc(-c3ccc(Cl)cc3)o2)cc1"
classification = "inactive"

[[record]]
compound = "COc1cccc(-c2nn(-c3ccccc3)cc2-c2ccnc(NCCCNS(=O)(=O)c3ccc(C(F)(F)F)cc3)c2)c1"
classification = "active"

[[record]]
compound = "CCCCC[C@H]1CC=C2C(=O)C=C[C@@H]2CC=CCCCC(=O)O[C@@H](CCCCC)CC=C2C(=O)C=C[C@@H]2CC=CCCCC(=O)O[C@@H](CCCCC)CC=C2C(=O)C=C[C@@H]2CC=CCCCC(=O)O1"
classification = "active"


Per the records of this test, what outcome belongs to `O=C(O)c1cccc2c1-c1ccc(Cl)cc1C2` ?
inactive

Which outcome was entered for the compound `c1csc(-c2nc(-c3cc4ccccc4c(N4CCOCC4)n3)cs2)c1` in this test?
inactive

Could you kindly confirm the outcome this assay logged for `CN1CCN(c2ccc3nc(-c4[nH]ncc4Nc4ncnc5c4OCCCN5)[nH]c3c2)CC1` ?
active

###

System: SK-MEL-2 melanoma
experiment.notes: NCI-60 one-dose screen, 48 h
details: 10 µM unless noted
This is part of a sample that, as a whole, favours compounds with a hit. Of some 83,000 tested, about 20% had one in any assay. Activity calls are given as the source filed them. How the source made its calls: active means growth percent below 10; inactive means the rest.
One label from this list, please: active, inactive

Recorded results for 4 compounds are shown here.
[[record]]
compound = "Oc1cccc2ccc(N/N=C/c3cc(CN4CCCCC4)c(O)c4ncccc34)nc12"
classification = "active"

[[record]]
compound = "CC(=O)O[C@@H]1CCN2C(=O)N(C)c3ccccc3[C@@H]2C1"
classification = "inactive"

[[record]]
compound = "O=C1c2cccc3cccc(c23)C(=O)N1CC#Cc1ccc2c3c(cccc13)C(=O)N(CCO)C2=O"
classification = "inactive"

[[record]]
compound = "Cc1ccc(C)c2c1CCC2C(C)C (centres undefined)"
classification = "inactive"


Record lookup: outcome of this test for `O=S(=O)(NCCNc1cc(-c2cn(-c3ccccc3)nc2-c2cccc(O)c2)ccn1)c1ccc(C(F)(F)F)cc1` ?
inactive

Tell me the assay call for `CC[C@]12C=CCN3CC[C@@]4(c5cc([C@H]6CCC(=O)N6)c(OC)cc5N(C)[C@H]4[C@@](O)(C(=O)OC)[C@@H]1OC(C)=O)[C@@H]32` please.
inactive

Write down the call the test reported for this compound. Item: `COc1cc(OC)c2c(c1)c1nc3cc(C)c(C)cc3nc1n2CCN(C)C`
inactive

What outcome does the record of this test show for `C=C(C)[C@@H]1CC[C@]2(C(=O)O)CC[C@]3(C)[C@H](CC[C@@H]4[C@@]5(C)C/C(=C/c6cccc(I)c6)C(=O)C(C)(C)[C@@H]5CC[C@]43C)[C@@H]12` ?
inactive
